protocol: TEAD-YAP interaction inhibition, primary screen, TEAD-YAP interaction inhibitor project, luminescence, HEK-TIYL cells (AID 1259422)
experimentalSetup: TEAD-Gal4/YAP UAS-luciferase luminescence, at 9.12 µM
Among all 640,000 compounds or so, about 9,300 (1.5%) were called active. No stated cut-off is given here; in the data, active means inhibition above about 32%; inactive means the rest. This excerpt belongs to a sample that is enriched for actives.
Form entry, call: pick from active, inactive

Q: Hi, do you know how Cc1ccc(-c2nc(CSCC(=O)N3CCC(C(N)=O)CC3)c(C)o2)cc1 came out in this test?
Ans: inactive

Q: Now the molecule COc1ccc(-c2nc(CSCC(=O)NC3CCCCCC3)c(C)o2)cc1OC
Ans: inactive

Q: Further, for Cc1ccc(C(=O)C[n+]2cc(-c3ccccc3)n3c2CCCCC3)cc1 ?
Ans: active

Q: And then COc1ccc2nc(N3CCC(NCc4cccc(F)c4F)CC3)nc(C)c2c1 , what is it?
Ans: inactive

Q: Now give it for CCOc1ccc(NC(=O)c2ccc3c(=O)n(-c4ccc(F)cc4)c(=S)[nH]c3c2)cc1 too.
Ans: inactive

Q: Please do the same for COc1ccc([N+](=O)[O-])cc1C1=N/C(=C/c2ccc(C(C)C)cc2)C(=O)O1 as well.
Ans: inactive

---
Q: Give the logged outcome of this assay for the following molecule: CCOC(=O)CC(=O)CSc1ccc2nnc(-c3ccc(Cl)cc3)n2n1
Ans: inactive

Q: Do the same for COC(CNc1cc(-c2ccc(F)cc2)nc(-c2ccccn2)n1)OC please
Ans: active

Q: Moving on to the next molecule: CCOCCOC(=O)COc1ccc2c(C)cc(=O)oc2c1
Ans: inactive

Q: Try the molecule CCOC(=O)c1c(/N=C/c2cccc(OC)c2OC)sc2c1CCN(CC)C2
Ans: inactive

* * *

protocol: TEAD-YAP interaction inhibition, primary screen, TEAD-YAP interaction inhibitor project, luminescence, HEK-TIYL cells (AID 1259422)
experimentalSetup: TEAD-Gal4/YAP UAS-luciferase luminescence, at 9.12 µM
The whole screen tested about 640,000 compounds, of which about 9,300 (1.5%) were called active. Rule as the data show it: active = inhibition above about 32%; inactive = the rest. For the sample, actives were picked, then their nearest neighbours and some compounds at random.
Your reply should match one of these outcome classes. Yes (active), No (inactive)

Q: Call for entry COC(=O)c1sc(NC(=O)C2CCCCC2)c(C#N)c1C :
Ans: No

Q: Next record, please: CCOc1ccc(-c2cn(-c3ccc(OC)cc3)c(SCC(=O)Nc3ccccc3C)n2)cc1
Ans: No

Q: Note, next up: CCCc1c(C(=O)N[C@H]2C[C@H]3C(=O)N[C@@H](CSCc4ccccc4)C(=O)N3C2)cnn1-c1ccccc1
Ans: No

---
Q: Hello, I am checking results. What call was entered for COc1ccc(-c2nc(NCCOc3ccccc3)nc(OC)n2)cc1 ?
Ans: No

Q: Would you mind doing CCc1ccccc1N(CC(=O)Nc1cccc(F)c1)S(C)(=O)=O as well?
Ans: No

Q: Can you check O=C(c1ccccc1Cl)N1CCCCC1 next?
Ans: No

Q: And the next one, O=[N+]([O-])c1ccc(-c2csc(=NCc3cccnc3)n2-c2ccccc2)cc1 ?
Ans: No

Q: Moving on to Cc1nccn1CC(O)COc1ccc(Br)cc1 (stereo unspecified)
Ans: No

Q: Another compound to check: COC(=O)c1sc(NC(=O)C2(C)CC2(Cl)Cl)c(C#N)c1C (stereo unspecified)
Ans: Yes

Q: Do the same for CCOC(=O)c1cnc2c(C)c(C)ccc2c1NCCCN(C)C please
Ans: Yes

Q: Can you handle CC1CC1c1ccc(/C=C(\C#N)C(=O)Nc2cccc([N+](=O)[O-])c2)o1 (stereo unspecified) next?
Ans: No
